# Tested on: HCV replicon 1AY93H
# assay: microbe, parasite or virus in culture
# Type: cell-based, Hepatitis C virus (HCV)
# test.context: read-out: 1A Y93H IC50; HCV replicon 1A Y93H; Replicon Assay A
# Description: To measure cell-based anti-HCV activity of compounds of the present invention, two complimentary assays were employed using various replicons. […] The replicon RNA level was measured using real time PCR (TaqMan® EZ RT-PCR, Applied Biosystems 403028) with the following primers and probes: […] The amount of HCV replicon RNA per cell is quantified using a linear regression curve for a known nanogram (ng) amount of HCV replicon total RNA. […]
pIC50 values, listed per item
pIC50 (log units): -log10 of the concentration in mol/L.

compound: COC(=O)NC(C(=O)N1CCC[C@H]1c1ncc(-c2ccc3c(c2)cc2n3C(c3ccc(C4CC4)s3)Oc3cc(-c4cnc([C@@H]5C[C@H]6C[C@H]6N5C(=O)[C@@H](NC(=O)OC)C(C)C)[nH]4)cc(F)c3-2)[nH]1)C1C[C@@H](C)O[C@@H](C)C1 (single isomer, unassigned) [Compound 538]
pIC50: 11.15

Give the reported pIC50 for this compound. COC(=O)N[C@H](C(=O)N1CCC[C@H]1c1ncc(-c2ccc3c(c2)OC(c2ccc(C4CC4)s2)n2c-3c(F)c3cc(-c4cnc([C@@H]5C[C@H]6C[C@H]6N5C(=O)[C@@H](NC(=O)OC)C(C)C)[nH]4)ccc32)[nH]1)C(C)C (single isomer, unassigned) [Compound 611]
10.94
